Ki: recorded values
STUDY_TARGET: human full-length glucocorticoid receptor (Homo sapiens)
ASSAY_EXPLANATION: Glucocorticoid Receptor Binding Assay (II), fluorescence polarization, FITC-dexamethasone
Set-up: recombinantly expressed human full-length glucocorticoid receptor; purchased PanVera Co., Madison P2816
EXPERIMENTAL_CONTEXT: GR Binding Assay (II); read-out: GR (Ki, nM) (GR Binding Assay (II))
Field: numeric (nM). Do not append units.

{"columns": ["COMPOUND", "MEASUREMENT_UNIT", "Ki"],
 "data": [
  ["CC(C)(C(=O)Nc1nc(Cc2ccccc2)cs1)C1c2ccccc2Oc2ccccc21", "nM", 1040],
  ["CC(C)(C(=O)Nc1nccs1)C1c2ccccc2Sc2ccccc21", "nM", 154],
  ["Cc1nc(NC(=O)C(C)(C)[C@@H]2c3ccccc3Oc3cc(O)ccc32)sc1C", "nM", 2550],
  ["C[C@H](Nc1ccc2c(n1)Oc1ccccc1[C@@H]2C(C)(C)C(=O)Nc1nncs1)c1ccccc1", "nM", 156]
]}

Lab note: next compound to report on.
// Ki lookup, key: COCCOCOc1ccc2c(c1)Oc1ccccc1C2C(C)(C)C(=O)Nc1nccs1 (centres unmarked)
88.7

====

STUDY_TARGET: human full-length glucocorticoid receptor (Homo sapiens, UniProt P04150)
Sequence (P04150 1-777): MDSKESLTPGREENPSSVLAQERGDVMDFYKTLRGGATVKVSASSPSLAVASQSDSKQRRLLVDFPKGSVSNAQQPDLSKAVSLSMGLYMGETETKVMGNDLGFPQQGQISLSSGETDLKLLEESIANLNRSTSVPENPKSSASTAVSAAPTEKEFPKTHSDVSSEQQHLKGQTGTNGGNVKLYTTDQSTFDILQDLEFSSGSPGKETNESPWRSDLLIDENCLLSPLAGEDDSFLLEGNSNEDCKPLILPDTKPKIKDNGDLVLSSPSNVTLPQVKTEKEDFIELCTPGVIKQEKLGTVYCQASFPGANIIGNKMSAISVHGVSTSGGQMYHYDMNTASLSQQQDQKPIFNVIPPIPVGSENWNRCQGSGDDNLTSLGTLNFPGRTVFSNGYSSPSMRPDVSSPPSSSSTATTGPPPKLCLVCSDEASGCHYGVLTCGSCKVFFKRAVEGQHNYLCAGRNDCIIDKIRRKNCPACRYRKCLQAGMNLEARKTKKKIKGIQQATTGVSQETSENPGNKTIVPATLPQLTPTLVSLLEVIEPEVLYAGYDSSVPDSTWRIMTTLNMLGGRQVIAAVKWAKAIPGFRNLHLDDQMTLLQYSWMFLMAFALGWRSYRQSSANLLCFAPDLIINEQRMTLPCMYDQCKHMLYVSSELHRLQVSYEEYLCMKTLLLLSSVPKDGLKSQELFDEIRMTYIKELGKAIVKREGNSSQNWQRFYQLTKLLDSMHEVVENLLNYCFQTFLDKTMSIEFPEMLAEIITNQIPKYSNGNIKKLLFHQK
ASSAY_EXPLANATION: Glucocorticoid Receptor Binding Assay (I), fluorescence polarization, Fluormone GS Red
Design: purified human recombinant full-length glucocorticoid receptor; purchased Invitrogen Part #2893
QUANTITY_KIND: pKi
Keep it numeric: pKi is minus log10 of the concentration in mol/L.

{"columns": ["COMPOUND", "REPORTED_MEASUREMENT"],
 "data": [
  ["CC(C)(C(=O)Nc1nncs1)[C@H]1c2ccccc2Oc2nc(-c3ccccc3)ccc21 [Example 171]", 8.15],
  ["CC(C)(C(=O)Nc1nncs1)[C@H]1c2ccccc2Oc2nc(-c3ccc(C(N)=O)cc3)ccc21 [Example 215]", 8.60],
  ["CC(C)(C(=O)Nc1nncs1)[C@H]1c2ccccc2Oc2nc(-c3ccc(C(=O)O)cc3)ccc21 [Example 174]", 7.99],
  ["Cc1cccc(-c2ccc3c(n2)Oc2ccccc2[C@@H]3C(C)(C)C(=O)Nc2nncs2)c1 [Example 179]", 7.19],
  ["Cc1nnc(NC(=O)C(C)(C)[C@H]2c3ccccc3Oc3nc(-c4ccc(C(=O)N5CCC(=O)CC5)cc4)ccc32)s1 [Example 475]", 7.74]
]}

Lab note: next compound to report on.
// pKi lookup, key: CNC(=O)c1ccc(-c2ccc3c(n2)Oc2ccccc2[C@@H]3C(C)(C)C(=O)Nc2nncs2)cc1F [Example 253]
8.20

====

STUDY_TARGET: human full-length glucocorticoid receptor (Homo sapiens)
ASSAY_EXPLANATION: Glucocorticoid Receptor Binding Assay (II), fluorescence polarization, FITC-dexamethasone
Parameters: recombinantly expressed human full-length glucocorticoid receptor; purchased PanVera Co., Madison P2816
QUANTITY_KIND: Ki (nM)
Field: numeric (nM). Do not append units.

// Ki lookup, key: Cc1cccc(-c2ccc3c(n2)Oc2ccccc2[C@@H]3C(C)(C)C(=O)Nc2nncs2)c1
37.9

====

AP-1 Max % inh (Cellular Transrepression Assay): recorded values
Test system: AP-1 induced transcriptional activity
ASSAY_EXPLANATION: Cellular Transrepressional Assay (AP-1 luciferase reporter, PMA-activated A549 cells)
Format: cell-based
EXPERIMENTAL_CONTEXT: maximum inhibition, Cellular Transrepression Assay
Field: numeric (%). Do not append units.

Reference set (5 entries):
{"columns": ["MOLECULE", "REPORTED_MEASUREMENT"],
 "data": [
  ["CCCc1ccc(-c2ccc3c(n2)Oc2ccccc2C3C(C)(C)C(=O)Nc2nncs2)cc1 (stereo not drawn) [Example 205]", 57.72],
  ["CCN(C)C(=O)c1ccc(-c2ccc3c(n2)Oc2ccccc2C3C(C)(C)C(=O)Nc2nncs2)cc1 (stereo not drawn) [Example 251]", 54.92],
  ["COc1ccc(-c2ccc3c(n2)Oc2ccccc2C3C(C)(C)C(=O)Nc2nncs2)cc1 (stereo not drawn) [Example 169]", 48.82],
  ["CC(C)(C(=O)Nc1nncs1)C1c2ccccc2Oc2cc(OC(=O)NCc3ccco3)ccc21 (stereo not drawn) [Example 393]", 43.80],
  ["CC(C)(C(=O)Nc1nncs1)C1c2ccccc2Oc2nc(-c3ccc(C(F)(F)F)cc3)ccc21 (stereo not drawn) [Example 182]", 33.12]
]}

// AP-1 Max % inh (Cellular Transrepression Assay) lookup, key: Cc1nnc(NC(=O)C(C)(C)C2c3ccc(-c4ccc(C(=O)N(C)C)c(F)c4)nc3Oc3c(F)cccc32)s1 (racemic) [Example 167]
57.94

// AP-1 Max % inh (Cellular Transrepression Assay) lookup, key: CCNS(=O)(=O)c1ccc(-c2ccc3c(n2)Oc2ccccc2C3C(C)(C)C(=O)Nc2nncs2)cc1 (stereo not drawn) [Example 234]
27.08

// AP-1 Max % inh (Cellular Transrepression Assay) lookup, key: Cc1csc(NC(=O)C(C)(C)C2c3ccccc3Oc3nc(-c4ccc(C(=O)N(C)C)cc4)ccc32)n1 (stereo not drawn) [Example 363]
47.74

// AP-1 Max % inh (Cellular Transrepression Assay) lookup, key: COc1ccc(NC(=O)Oc2ccc3c(c2)Oc2ccccc2C3C(C)(C)C(=O)Nc2nncs2)cc1 (stereo not drawn) [Example 390]
56.63

// AP-1 Max % inh (Cellular Transrepression Assay) lookup, key: CC(C)(C(=O)Nc1nncs1)C1c2ccccc2Oc2nc(-c3ccc(OC(F)(F)F)cc3)ccc21 (stereo not drawn) [Example 173]
44.82

====

Ki: recorded values
STUDY_TARGET: human full-length glucocorticoid receptor (Homo sapiens)
Sequence (P04150 1-777): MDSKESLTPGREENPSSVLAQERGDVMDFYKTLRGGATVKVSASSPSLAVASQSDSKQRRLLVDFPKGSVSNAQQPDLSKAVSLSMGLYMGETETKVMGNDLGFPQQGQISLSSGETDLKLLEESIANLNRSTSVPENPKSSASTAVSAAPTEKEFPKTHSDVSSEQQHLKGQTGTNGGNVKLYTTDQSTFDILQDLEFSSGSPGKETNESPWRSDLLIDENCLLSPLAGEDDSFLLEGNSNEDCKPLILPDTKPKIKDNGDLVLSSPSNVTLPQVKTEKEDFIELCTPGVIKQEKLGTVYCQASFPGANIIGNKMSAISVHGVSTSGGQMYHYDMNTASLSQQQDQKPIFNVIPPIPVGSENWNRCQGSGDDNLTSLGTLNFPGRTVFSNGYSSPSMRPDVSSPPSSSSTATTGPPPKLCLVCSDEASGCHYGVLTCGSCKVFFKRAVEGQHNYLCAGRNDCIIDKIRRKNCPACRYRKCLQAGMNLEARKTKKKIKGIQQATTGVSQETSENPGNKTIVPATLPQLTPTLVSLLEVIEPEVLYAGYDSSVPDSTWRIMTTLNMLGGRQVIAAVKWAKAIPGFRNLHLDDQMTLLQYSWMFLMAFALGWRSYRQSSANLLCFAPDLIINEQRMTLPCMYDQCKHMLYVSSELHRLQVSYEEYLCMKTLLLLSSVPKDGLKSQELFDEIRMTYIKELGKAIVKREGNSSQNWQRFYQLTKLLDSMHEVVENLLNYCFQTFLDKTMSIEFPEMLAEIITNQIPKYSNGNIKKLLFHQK
ASSAY_EXPLANATION: Glucocorticoid Receptor Binding Assay (II), fluorescence polarization, FITC-dexamethasone
Design: recombinantly expressed human full-length glucocorticoid receptor; purchased PanVera Co., Madison P2816
EXPERIMENTAL_CONTEXT: GR Binding Assay (II); read-out: GR (Ki, nM) (GR Binding Assay (II))
Field: numeric (nM). Do not append units.

// Ki lookup, key: Cc1nnc(NC(=O)C(C)(C)C2c3ccccc3Oc3ncccc32)s1 (centres unmarked) [Example 71]
517

// Ki lookup, key: CN(C)c1ccc2c(n1)Oc1ccccc1[C@@H]2C(C)(C)C(=O)Nc1nncs1 [Example 149]
11

// Ki lookup, key: CC(C)(C(=O)Nc1nncs1)[C@H]1c2ccccc2Oc2nc(NC(=O)c3ccccc3)ccc21 [Example 152]
10.9

// Ki lookup, key: CC(C)(C(=O)Nc1nncs1)[C@H]1c2ccccc2Oc2nc(-c3cccnc3)ccc21 [Example 187]
34.4

// Ki lookup, key: CC(C)(C(=O)Nc1nccs1)C1c2ccccc2Oc2ncccc21 (centres unmarked) [Example 67]
107

// Ki lookup, key: Cc1cnc(NC(=O)C(C)(C)C2c3ccccc3Oc3ncccc32)s1 (centres unmarked) [Example 69]
515

// Ki lookup, key: CC(C)(C(=O)Nc1nccs1)C1c2ccccc2CCc2ccccc21 [Example 25]
41.1

// Ki lookup, key: CC(C)(C(=O)Nc1nccs1)[C@@H]1c2ccccc2Oc2cc(O)ccc21 [Example 94]
404

// Ki lookup, key: CC(C)(C(=O)Nc1nncs1)[C@H]1c2ccccc2Oc2nc(-c3ccc(C#N)cc3)ccc21 [Example 203]
13.1

// Ki lookup, key: CCCCNc1ccc2c(c1)Oc1ncccc1C2C(C)(C)C(=O)Nc1nccs1 (centres unmarked) [Example 155]
31.8
